A set of compounds tested on UniProt P12527, with measured IC50:
Test Readout: IC50 (nM)

• O=C(Oc1ccccc1)c1cc(Cc2ccccc2)c(O)c2ccccc12 = 160
• Oc1c(/C=C/c2ccccc2)ccc2ccccc12 = 160
